MEASUREMENT_TARGET: Cytochrome P450 3A4 (Homo sapiens)
ASSAY_PROCEDURE: Cytochrome panel assay with activity outcomes
CONDITION_DESCRIPTION: recombinant CYP, pro-luciferin dealkylation, luminescence, p450-cyp3a4; series mostly up to 57.1 µM
In all, about 16,000 compounds went through this assay and about 5,100 (32%) were called active. Roughly 25% stayed inconclusive and do not appear here. Calls come from the whole dose curve; as a rule, active = well fitted curve in the direction sought with a large enough effect; inconclusive = small, poorly fitted or top-dose-only effect, or effect the other way; inactive = no such curve, though single readings can be large or run the other way. This is one part of the list.
Your answer must be one of the following: active, inactive

Use these answered entries as a reference point.
> print(dat)
                                   compound  category
1  Cc1ccc(NC(=O)c2cc(NC(=O)CCC(=O)O)ccc2N2CCCCC2)cc1  inactive
2  CN(CC(=O)O/N=C(\N)c1ccccn1)S(=O)(=O)c1ccccc1  inactive
3  COc1cc(/C=N/NC(=O)c2cccnc2)ccc1OC(=O)c1ccc2c(c1)OCO2    active

[in] # outcome recorded in this test, key = CC1CCCCN1c1nc(-c2ccncc2)nc2ccccc12 (configuration not stated)
[out] active

[in] # outcome recorded in this test, key = COc1ccc(N(CC(=O)NN=C2CCCC2)S(=O)(=O)c2ccccc2)cc1
[out] active

* * *

MEASUREMENT_TARGET: Cytochrome P450 3A4 (Homo sapiens)
ASSAY_PROCEDURE: Cytochrome panel assay with activity outcomes; for activity, negative = inhibition: % is set by controls: 0 for no effect and ±100 for the full control effect
CONDITION_DESCRIPTION: recombinant CYP, pro-luciferin dealkylation, luminescence, p450-cyp3a4; series mostly up to 57.1 µM
Protocol: The P450 gene superfamily is involved in the metabolism and clearance of xenobiotics. This assay used various human CYP P450 isozymes to measure the dealkylation of various pro-luciferin substrates to luciferin. The luciferin is then measured by luminescence after the addition of a luciferase detection reagent. […] Inhibitors and some substrates limit the production of luciferin, and decrease measured luminescence. […] 8, Detection, 1 sec, ViewLux luminescent read […]
About 5,100 (32%) of roughly 16,000 compounds were called active. Not shown: some 25% with an inconclusive outcome. Some of the results follow.
MEASURED_METRIC: activity, negative = inhibition

Some entries whose results are on file:
> print(dat)
                                   molecule                  measured.metric                         reported
1               C/C(=N\NC(N)=O)c1ccc(Cl)cc1  activity, negative = inhibition  -0.483% [at 11.4 µM] (inactive)
2                COc1ccc(OC[C@@H](CO)OC)cc1  activity, negative = inhibition   -12.9% [at 11.4 µM] (inactive)
3  CN(Cc1cc(C(C)(C)C)cc(Br)c1O)Cc1cc(C(C)(C)C)cc(Br)c1O  activity, negative = inhibition   -11.7% [at 11.4 µM] (inactive)
4  CN1C(=O)c2ccccc2C(C(=O)O)C1c1cn(C)c2ccccc12 (centres undefined)  activity, negative = inhibition     7.7% [at 2.29 µM] (inactive)
5              CCCOc1ccc(-c2nc(N)n[nH]2)cc1  activity, negative = inhibition    8.08% [at 11.4 µM] (inactive)
6  CC(C)(C)c1ccc(C(=O)Nc2ccc(NC(=O)c3ccco3)cc2)cc1  activity, negative = inhibition    11.7% [at 2.29 µM] (inactive)
7            O=C(NCCc1ccc(Cl)cc1)c1ncn[nH]1  activity, negative = inhibition  -0.238% [at 2.29 µM] (inactive)
8        O=C(CNC(=O)c1ccccn1)N/N=C/c1ccccc1  activity, negative = inhibition   -5.67% [at 2.29 µM] (inactive)

// batch mode: one activity, negative = inhibition value per listed entry
1. O=C(CSCc1ccc(Cl)cc1)Nc1ccc2c(c1)OCCO2
2. CC(C)c1cc(CN(C)C)c(O)c(C(C)(C)C)c1
3. CN1CCN(C(=O)c2ccc(COc3ccc(C(C)(C)C)cc3)o2)CC1
4. O=C(O)c1ccccc1NCn1c(=S)sc2ccccc21
5. O=C(O)c1cccc(SSc2cccc(C(=O)O)c2)c1
6. CC1(C)O[C@@H]2O[C@H]([C@H](O)CO/N=C3/[C@H]4O[C@@H]4[C@@H](O)[C@H]4[C@H]3CCn3c(=O)n(-c5ccccc5)c(=O)n34)[C@@H](O)[C@@H]2O1
7. O=C(O)c1nc(-c2ccccc2)[nH]c1C(=O)O

[out]
-20.7% [at 11.4 µM] (inactive)
-5.68% [at 11.4 µM] (inactive)
-9.09% [at 2.29 µM] (inactive)
-19.2% [at 11.4 µM] (inactive)
-11.9% [at 11.4 µM] (inactive)
-8.83% [at 11.4 µM] (inactive)
-3.83% [at 11.4 µM] (inactive)

// batch mode: one activity, negative = inhibition value per listed entry
1. Nc1nc(SCC(=O)O)[nH]c(=O)c1N
2. Cc1cc(N=Cc2c(CO)cnc(C)c2O)c(N=Cc2c(CO)cnc(C)c2O)cc1C.[Zn]

[out]
-4.46% [at 11.4 µM] (inactive)
-6.9% [at 11.4 µM] (inactive)

// batch mode: one activity, negative = inhibition value per listed entry
1. N[C@@H](Cc1ccccc1)C(=O)O
2. O=C(O)c1cccc(CN2CCCCC2)c1
3. Cc1nc2ccccc2nc1-c1ccc(N=[N+]([O-])c2ccc(-c3nc4ccccc4nc3C)cc2)cc1
4. CC(C)CSC[C@@H]1O[C@H](n2cnc3c(N)nccc32)[C@H](O)[C@@H]1O
5. Cc1c(Br)cc(C(=O)NC2CCCCC2)c(C)c1C
6. Cc1n[nH]c(C)c1S(=O)(=O)N1CCC(C(=O)O)CC1
7. CC1=CC(=O)CC(C)(C)[C@]1(O)/C=C\C(C)=C\C(=O)O

[out]
1: -6.07% [at 11.4 µM] (inactive); 2: -0.758% [at 11.4 µM] (inactive); 3: 3.4% [at 11.4 µM] (inactive); 4: -25.4% [at 11.4 µM] (inactive); 5: -5.25% [at 2.29 µM] (inactive); 6: 3.15% [at 11.4 µM] (inactive); 7: -1.41% [at 11.4 µM] (inactive)

* * *

MEASUREMENT_TARGET: Cytochrome P450 3A4 (Homo sapiens) (UniProt P08684)
Sequence (P08684 whole entry, looked up): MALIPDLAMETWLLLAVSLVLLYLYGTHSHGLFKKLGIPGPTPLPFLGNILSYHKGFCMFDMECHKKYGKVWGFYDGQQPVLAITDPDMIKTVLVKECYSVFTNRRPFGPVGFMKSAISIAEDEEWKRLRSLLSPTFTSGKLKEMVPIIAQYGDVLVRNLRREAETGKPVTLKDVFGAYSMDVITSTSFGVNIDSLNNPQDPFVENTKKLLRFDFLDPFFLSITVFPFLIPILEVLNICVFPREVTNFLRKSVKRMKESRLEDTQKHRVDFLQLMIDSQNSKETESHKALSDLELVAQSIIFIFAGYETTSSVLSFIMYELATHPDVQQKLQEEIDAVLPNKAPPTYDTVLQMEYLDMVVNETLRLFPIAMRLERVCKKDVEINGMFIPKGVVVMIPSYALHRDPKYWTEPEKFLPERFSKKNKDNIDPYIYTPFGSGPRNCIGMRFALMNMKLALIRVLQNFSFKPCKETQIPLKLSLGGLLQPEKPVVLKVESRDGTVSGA
ASSAY_PROCEDURE: Cytochrome panel assay with activity outcomes
CONDITION_DESCRIPTION: recombinant CYP, pro-luciferin dealkylation, luminescence, p450-cyp3a4; series mostly up to 57.1 µM
The campaign covered roughly 16,000 compounds. About 5,100 (32%) were called active. Not shown: some 25% with an inconclusive outcome. Calls follow the shape of the dose curve; as a rule, active = well fitted curve in the direction sought with a large enough effect; inconclusive = small, poorly fitted or top-dose-only effect, or effect the other way; inactive = no such curve, though single readings can be large or run the other way. The list shows a part of the results.
Your answer must be one of the following: active, inactive

[in] # outcome recorded in this test, key = COc1ccccc1CN1CCCC2(CCN(C(C)=O)CC2)C1
[out] inactive

[in] # outcome recorded in this test, key = COc1ccc(C(=O)N2CCC[C@@]3(CCN(c4cccc(-c5ccccc5)c4)C3)C2)cc1
[out] active

[in] # outcome recorded in this test, key = CN1CCN(c2nc(-c3cccc(C#N)c3)nc3ccccc23)CC1
[out] active

[in] # outcome recorded in this test, key = COc1ccc(-c2cc(C(=O)O)c3c(C)nn(-c4ccccn4)c3n2)cc1
[out] inactive

[in] # outcome recorded in this test, key = N#Cc1cccc(-c2nc(N3CCNCC3)c3ccccc3n2)c1
[out] active

[in] # outcome recorded in this test, key = Cc1noc(COc2ccc(OCc3nc(C)no3)cc2)n1
[out] inactive

[in] # outcome recorded in this test, key = COc1ccc(OC(=O)c2ccncc2)cc1
[out] inactive

[in] # outcome recorded in this test, key = COc1ccc(-n2c(=O)c(-c3cccc(C#N)c3)nc3cnc(N4CCNCC4)nc32)cc1
[out] inactive

[in] # outcome recorded in this test, key = COCC(=O)N1CCC2(CCCN(Cc3ccccc3OC)C2)CC1
[out] inactive

[in] # outcome recorded in this test, key = COc1ccccc1CN1CCCC2(CCN(C(=O)c3ccncc3)CC2)C1
[out] active

[in] # outcome recorded in this test, key = COc1ccc(/C=C/c2ccncc2)cc1
[out] active

* * *

MEASUREMENT_TARGET: Cytochrome P450 3A4 (Homo sapiens) (UniProt P08684)
ASSAY_PROCEDURE: Cytochrome panel assay with activity outcomes
CONDITION_DESCRIPTION: recombinant CYP, pro-luciferin dealkylation, luminescence, p450-cyp3a4; series mostly up to 57.1 µM
Description: The P450 gene superfamily is involved in the metabolism and clearance of xenobiotics. This assay used various human CYP P450 isozymes to measure the dealkylation of various pro-luciferin substrates to luciferin. The luciferin is then measured by luminescence after the addition of a luciferase detection reagent. […] Inhibitors and some substrates limit the production of luciferin, and decrease measured luminescence. […] 8, Detection, 1 sec, ViewLux luminescent read […]
Out of some 16,000 compounds screened, about 5,100 (32%) were called active. Inconclusive results (about 25%) are left out. The call rests on the fitted dose curve; in most records, active means well fitted curve in the direction sought with a large enough effect; inconclusive means small, poorly fitted or top-dose-only effect, or effect the other way; inactive means no such curve, though single readings can be large or run the other way. This is one part of the list.
Your answer must be one of the following: active, inactive

> print(dat)
                                   molecule  category
1  COc1ccc(CN2C(=O)CN(C3CCCCCC3)C(=O)C2c2ccc(OC)c(OC)c2)cc1 (stereo not given)    active
2  COc1ccc(-n2c(CNC(=O)c3ccc(S(=O)(=O)N4CCCC4)cc3)n[nH]c2=S)cc1    active
3                 COCCNc1cc(-c2ccccc2C)ncn1  inactive
4  CCC(C)NC(=O)C1CC(c2ccc(OC)cc2)=NO1 (stereo not given)  inactive
5  O=C1C2=C(NC(=S)NC2c2ccc(Cl)cc2)NC(c2ccc(Cl)cc2)N1c1ccc(Cl)cc1 (stereo not given)    active

[in] # outcome recorded in this test, key = Cc1ccccc1-c1cncnc1Nc1ccc(F)cc1
[out] active

[in] # outcome recorded in this test, key = c1cncc(-c2nnc3n2C2(CCCCC2)Cc2ccccc2-3)c1
[out] active

[in] # outcome recorded in this test, key = Nc1ccccc1S(N)(=O)=O
[out] inactive

[in] # outcome recorded in this test, key = COc1ccc(C2C(=O)N(C3CCCCCC3)CC(=O)N2Cc2ccccc2)cc1OC (stereo not given)
[out] active

[in] # outcome recorded in this test, key = CC(C)NC(=O)N1CCC2(CC1)CCN(C(=O)c1cnccn1)CC2
[out] inactive

[in] # outcome recorded in this test, key = COc1cc(O)oc1C=Nc1ccc(Cl)cc1
[out] active

[in] # outcome recorded in this test, key = CCc1cc2c(nc1CC)CCN(CC/C(C)=N/O[C@@H](C)c1cc(-c3c(C)cc(C)cc3C)no1)C2
[out] active

[in] # outcome recorded in this test, key = CNc1cc(-c2ccccc2C)ncn1
[out] inactive

[in] # outcome recorded in this test, key = O=C(O)c1ccccc1Nc1ccccc1
[out] inactive

[in] # outcome recorded in this test, key = COC(=O)C/C=C\[C@@H](C)[C@@H](/C=N\O[C@@H](C)c1cn([C@H](CO)Cc2ccccc2)nn1)OC
[out] active

[in] # outcome recorded in this test, key = Cc1oc(C(C)(C)C)cc1C(=O)Nc1cccc(/C=C/C(=O)O)c1
[out] inactive

[in] # outcome recorded in this test, key = CC(C)CN1CCCC2(CCN(C(=O)c3cnccn3)CC2)C1
[out] active

[in] # outcome recorded in this test, key = CCC(C)N1C(=O)S/C(=C/c2ccc(Sc3nc4ccccc4[nH]3)o2)C1=O (stereo not given)
[out] active

[in] # outcome recorded in this test, key = CCCCCCCCOC1OC(CO)C(O)C(O)C1NC(C)=O (stereo not given)
[out] inactive

[in] # outcome recorded in this test, key = CNc1nc(C)cc(C)c1S(=O)(=O)c1ccc(C)cc1
[out] active

[in] # outcome recorded in this test, key = Cc1cc2c(nc1C)CCCN2C[C@H](O)CN1CCCc2nc(-c3ccc(Br)cc3)ccc21
[out] active

[in] # outcome recorded in this test, key = COc1ccccc1-c1cncnc1Nc1ccc(F)cc1
[out] active

[in] # outcome recorded in this test, key = CCCCOC(=O)Nc1ccc(C)c(Cl)c1
[out] inactive

[in] # outcome recorded in this test, key = CC(C)CN1CCC2(CC1)CCN(C(=O)c1csnn1)CC2
[out] inactive

[in] # outcome recorded in this test, key = C/C(CCN1CCCCc2nc(C)c(C)cc21)=N\O[C@@H](C)CN1CCCc2nc(C)c(C)cc21
[out] active

[in] # outcome recorded in this test, key = O=C(O)CCC(=O)Nc1ccc(C(=O)N2CCCCC2)cc1
[out] inactive

[in] # outcome recorded in this test, key = CC(=O)NC1C(OCCOc2ccc(Cl)cc2Cl)OC(COC(C)=O)C(OC(C)=O)C1OC(C)=O (stereo not given)
[out] active

[in] # outcome recorded in this test, key = O=C(c1cnccn1)N1CCC[C@@]2(CCN(Cc3nccs3)C2)C1
[out] active

Taken from PubChem BioAssay AID1851.
